Where do the numbers come from? From PubChem BioAssay (NCI).

tested on: HCT-15 colon; assay: NCI tumour cell line growth inhibition, 48 h
Property name: TGI

Task item: State TGI on HCT-15 colon. Entry: CC(OC(C)(C)C)[C@H](NC(=O)OCc1ccccc1)C(=O)NC(OCc1ccccc1)[C@H]1COC(C)(C)O1 (stereo not given in full)
Reply: > 10 µM

Task item: State TGI on HCT-15 colon. Entry: Cc1ccc(NC(=O)c2cc(S(=O)(=O)Nc3n[nH]c(=O)n3-c3ccccc3)c(S)cc2Cl)cc1
Reply: > 100 µM

Task item: State TGI on HCT-15 colon. Entry: COC(=O)c1cc(C)n(CN(Cn2nc(C(=O)OC)cc2C)c2ccccc2)n1
Reply: 47.2 µM

Task item: State TGI on HCT-15 colon. Entry: CC1CC(NN)=Nc2ccccc2N1 (stereo not given)
Reply: > 100 µM

Task item: State TGI on HCT-15 colon. Entry: COc1ccc(-c2c(C#N)c(=O)nc(SC)n2C2OCC(OC(C)=O)C(OC(C)=O)C2OC(C)=O)cc1 (stereo not given)
Reply: > 100 µM

Task item: State TGI on HCT-15 colon. Entry: O=[N+]([O-])/C(C(Cl)=C(Cl)Cl)=C1\NCCS1
Reply: > 100 µM
